Reference source: patent US20240270821A1

# SYSTEM: T1, human GIP receptor (human) (UniProt P48546)
# T1 sequence (looked up): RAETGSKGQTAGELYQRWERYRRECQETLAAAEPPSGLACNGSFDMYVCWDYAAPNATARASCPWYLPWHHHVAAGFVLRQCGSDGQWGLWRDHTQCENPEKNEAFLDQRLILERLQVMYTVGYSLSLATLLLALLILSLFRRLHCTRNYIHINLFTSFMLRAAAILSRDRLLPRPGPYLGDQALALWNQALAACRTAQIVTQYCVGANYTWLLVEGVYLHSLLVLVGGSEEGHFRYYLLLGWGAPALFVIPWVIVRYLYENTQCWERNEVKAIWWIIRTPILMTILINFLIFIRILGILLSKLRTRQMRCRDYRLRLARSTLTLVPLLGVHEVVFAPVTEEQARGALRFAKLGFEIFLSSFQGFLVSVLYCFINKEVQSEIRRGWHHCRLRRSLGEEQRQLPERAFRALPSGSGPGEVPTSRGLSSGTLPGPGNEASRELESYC
# EXPERIMENT: cell-based or functional assay
Entries and their log10 of Relative cAMP EC50 values follow.
MEASURED_PROPERTY: log10 of Relative cAMP EC50 (log10 of the value in pM)

binder="YXQGTXTSDXXIXLDXKAQXXFIEXLAEGGPSSGEPPPE (synthetic construct; SITE 2: note = 2-Aminoisobutyric Acid; SITE 6: note = alpha-methyl-2-fluoro-L-phenylalanine; SITE 10: note = 3-(4-Pyridyl)-L-alanine; SITE 11: note = alpha-methyl-L-serine; SITE 13: note = alpha-methyl-leucine; SITE 16: note = L-ornithine; SITE 17: note = Lysine is chemically mo) [Example 437]" measured_property="log10 of Relative cAMP EC50" result_value=1.94
binder="YXQGTFTSDFSXXLDKKAQXAFIEYLLEAGHSSGAPPPSGE (Aib, Orn, αMeL, D-Ala; lysine acylated C18 diacid; amide; synthetic construct; SITE 2: note = 2-Aminoisobutyric Acid; SITE 12: note = L-ornithine; SITE 13: note = alpha-methyl-leucine; SITE 17: note = Lysine is chemically modified through conjugation of the epsilon-amino group of the Lysine side chain with (2-[2-(2-Amino-ethoxy)-ethoxy]-acetyl)-(gamma-Glu)) [Example 207]" measured_property="log10 of Relative cAMP EC50" result_value=2.51
binder="YXQGTXTSDXXIXLDXKAQXXFIEYLIEGGPSSGEPPPSGT (synthetic construct; SITE 2: note = 2-Aminoisobutyric Acid; SITE 6: note = alpha-methyl-2-fluoro-L-phenylalanine; SITE 10: note = 3-(4-Pyridyl)-L-alanine; SITE 11: note = alpha-methyl-L-serine; SITE 13: note = alpha-methyl-leucine; SITE 16: note = L-ornithine; SITE 17: note = Lysine is chemically mo) [Example 502]" measured_property="log10 of Relative cAMP EC50" result_value=1.53
binder="YXQGTXTSDYSILLDKKAQXAFIEYLEEGGPSSGAPPPS (synthetic construct; SITE 2: note = 2-Aminoisobutyric Acid; SITE 6: note = alpha-methyl-L-phenylalanine; SITE 17: note = Lysine is chemically modified through conjugation of the epsilon-amino group of the Lysine side chain with (2-[2-(2-Amino-ethoxy)-ethoxy]-acetyl)-(gamma-Glu)-CO-(CH2) 16-CO2H; SIT) [Example 392]" measured_property="log10 of Relative cAMP EC50" result_value=1.76
binder="YXQGTFTSDXSKXLDKKAQXAFIEYLIEXGESSGAPPPSGS (synthetic construct; SITE 2: note = 2-Aminoisobutyric Acid; SITE 10: note = 3-(4-Pyridyl)-L-alanine; SITE 13: note = alpha-methyl-leucine; SITE 17: note = Lysine is chemically modified through conjugation of the epsilon-amino group of the Lysine side chain with (2-[2-(2-Amino-ethoxy)-ethoxy]-acetyl)) [Example 280]" measured_property="log10 of Relative cAMP EC50" result_value=2.02
binder="YXQGTXTSDXSILLDKKAQXAFIEYLEEGGPSSGAPPPSGSEE (Aib, αMeF(2F), 4Pal; lysine acylated C18 diacid; amide; synthetic construct; SITE 2: note = 2-Aminoisobutyric Acid; SITE 6: note = alpha-methyl-2-fluoro-L-phenylalanine; SITE 10: note = 3-(4-Pyridyl)-L-alanine; SITE 17: note = Lysine is chemically modified through conjugation of the epsilon-amino group of the Lysine side chain with (gamma-Glu)2-CO-(CH2)1) [Example 610]" measured_property="log10 of Relative cAMP EC50" result_value=2.12
binder="YXQGTXTSDXSIXLDXKAQXXFIEXLIEGGPSSGEPPPEGT (synthetic construct; SITE 2: note = 2-Aminoisobutyric Acid; SITE 6: note = alpha-methyl-2-fluoro-L-phenylalanine; SITE 10: note = 3-(4-Pyridyl)-L-alanine; SITE 13: note = alpha-methyl-leucine; SITE 16: note = L-ornithine; SITE 17: note = Lysine is chemically modified through conjugation of the epsil) [Example 505]" measured_property="log10 of Relative cAMP EC50" result_value=0.85
binder="YXQGTFTSDXSXXLDXKAQXAFIEXLLEGGPSSGAPPPSGSEE (Aib, 4Pal, Orn, αMeL, αMeY; lysine acylated C18 diacid; amide; synthetic construct; SITE 2: note = 2-Aminoisobutyric Acid; SITE 10: note = 3-(4-Pyridyl)-L-alanine; SITE 12: note = L-ornithine; SITE 13: note = alpha-methyl-leucine; SITE 16: note = L-ornithine; SITE 17: note = Lysine is chemically modified through conjugation of the epsilon-amino group of the Lys) [Example 1064]" measured_property="log10 of Relative cAMP EC50" result_value=2.75
binder="YXQGTFTSDFSQXLDKKAQXAFIEYLIAGGPSSGAPPPSGS (synthetic construct; SITE 2: note = 2-Aminoisobutyric Acid; SITE 13: note = alpha-methyl-leucine; SITE 17: note = Lysine is chemically modified through conjugation of the epsilon-amino group of the Lysine side chain with (2-[2-(2-Amino-ethoxy)-ethoxy]-acetyl)-(gamma-Glu)-CO-(CH2) 16-CO2H; SITE 20: n) [Example 875]" measured_property="log10 of Relative cAMP EC50" result_value=2.00
binder="YXQGTFTSDXSQXLDKKAQXAFIEYLIAGGPSSGEPPPSGSGE (synthetic construct; SITE 2: note = 2-Aminoisobutyric Acid; SITE 10: note = 3-(4-Pyridyl)-L-alanine; SITE 13: note = alpha-methyl-leucine; SITE 17: note = Lysine is chemically modified through conjugation of the epsilon-amino group of the Lysine side chain with (gamma-Glu)2-CO-(CH2)16-CO2H; SITE 20:) [Example 971]" measured_property="log10 of Relative cAMP EC50" result_value=2.47
binder="YXQGTFTSDFSXXLDKKAQXAFIEYLLAGGPSSGAPPPEGSEE (Aib, Orn, αMeL; acylated Lys; C-terminal amide; synthetic construct; SITE 2: note = 2-Aminoisobutyric Acid; SITE 12: note = L-ornithine; SITE 13: note = alpha-methyl-leucine; SITE 17: note = Lysine is chemically modified through conjugation of the epsilon-amino group of the Lysine side chain with (gamma-Glu)2-CO-(CH2)16-CO2H; SITE 20: note = 2-Am) [Example 1051]" measured_property="log10 of Relative cAMP EC50" result_value=2.24
binder="YXQGTFTSDFSKXLDKKAQXAFIEYLLAGGPSSGAPPPSGS (non-natural residues, acyl lysine, C-terminal amide; synthetic construct; SITE 2: note = 2-Aminoisobutyric Acid; SITE 13: note = alpha-methyl-leucine; SITE 17: note = Lysine is chemically modified through conjugation of the epsilon-amino group of the Lysine side chain with (2-[2-(2-Amino-ethoxy)-ethoxy]-acetyl)-(gamma-Glu)-CO-(CH2) 18-CO2H; SITE 20: n) [Example 14]" measured_property="log10 of Relative cAMP EC50" result_value=2.23
binder="YXQGTXTSDXXIXLDXKAQXEFIEXLVEGGPSSGEPPPESE (not fully specified; non-natural residues; lipidated Lys; C-terminal amide; synthetic construct; SITE 2: note = 2-Aminoisobutyric Acid; SITE 6: note = alpha-methyl-2-fluoro-L-phenylalanine; SITE 10: note = 3-(4-Pyridyl)-L-alanine; SITE 11: note = alpha-methyl-L-serine; SITE 13: note = alpha-methyl-leucine; SITE 16: note = L-ornithine; SITE 17: note = Lysine is chemically mo) [Example 1157]" measured_property="log10 of Relative cAMP EC50" result_value=1.09
binder="YXQGTFTSDXSXXLDXKAQXAFIEYLIAGGPSSGEPPPSGE (Lys acylated (γ-Glu)2-C18 diacid; non-natural residues; C-terminal amide; synthetic construct; SITE 2: note = 2-Aminoisobutyric Acid; SITE 10: note = 3-(4-Pyridyl)-L-alanine; SITE 12: note = L-ornithine; SITE 13: note = alpha-methyl-leucine; SITE 16: note = L-ornithine; SITE 17: note = Lysine is chemically modified through conjugation of the epsilon-amino group of the Lys) [Example 983]" measured_property="log10 of Relative cAMP EC50" result_value=2.46
binder="YXQGTFTSDFSXXLDKKAQXAFIEWLLEGGPSSGAXPPSGE (synthetic construct; SITE 2: note = 2-Aminoisobutyric Acid; SITE 12: note = L-ornithine; SITE 13: note = alpha-methyl-leucine; SITE 17: note = Lysine is chemically modified through conjugation of the epsilon-amino group of the Lysine side chain with (2-[2-(2-Amino-ethoxy)-ethoxy]-acetyl)-(gamma-Glu)) [Example 136]" measured_property="log10 of Relative cAMP EC50" result_value=2.34
binder="YXQGTXTSDXXIXLDXKAQXXFIEXLQEGGPSSGEPPPE (synthetic construct; SITE 2: note = 2-Aminoisobutyric Acid; SITE 6: note = alpha-methyl-2-fluoro-L-phenylalanine; SITE 10: note = 3-(4-Pyridyl)-L-alanine; SITE 11: note = alpha-methyl-L-serine; SITE 13: note = alpha-methyl-leucine; SITE 16: note = L-ornithine; SITE 17: note = Lysine is chemically mo) [Example 439]" measured_property="log10 of Relative cAMP EC50" result_value=1.80
binder="YXQGTXTSDXXIXLDXKAQXEFIEXLVEGGPSSGAPPPTGE (not fully specified; acylated lysine AEEA-γGlu-C18 diacid; non-natural residues; C-terminal amide; synthetic construct; SITE 2: note = 2-Aminoisobutyric Acid; SITE 6: note = alpha-methyl-2-fluoro-L-phenylalanine; SITE 10: note = 3-(4-Pyridyl)-L-alanine; SITE 11: note = alpha-methyl-L-serine; SITE 13: note = alpha-methyl-leucine; SITE 16: note = L-ornithine; SITE 17: note = Lysine is chemically mo) [Example 1152]" measured_property="log10 of Relative cAMP EC50" result_value=1.00
binder="YXQGTFTSDFSXXLDKKAQXAFIEYLLEAGPSSGAPPPSGH (synthetic construct; SITE 2: note = 2-Aminoisobutyric Acid; SITE 12: note = L-ornithine; SITE 13: note = alpha-methyl-leucine; SITE 17: note = Lysine is chemically modified through conjugation of the epsilon-amino group of the Lysine side chain with (2-[2-(2-Amino-ethoxy)-ethoxy]-acetyl)-(gamma-Glu)) [Example 259]" measured_property="log10 of Relative cAMP EC50" result_value=2.06
binder="YXQGTXTSDXXIXLDXKAQXXFIEXLTEGGPSSGEPPPEGTEEE (non-natural residues; (γGlu)2-C18 diacid on Lys; C-terminal amide; synthetic construct; SITE 2: note = 2-Aminoisobutyric Acid; SITE 6: note = alpha-methyl-2-fluoro-L-phenylalanine; SITE 10: note = 3-(4-Pyridyl)-L-alanine; SITE 11: note = alpha-methyl-L-serine; SITE 13: note = alpha-methyl-leucine; SITE 16: note = L-ornithine; SITE 17: note = Lysine is chemically mo) [Example 598]" measured_property="log10 of Relative cAMP EC50" result_value=1.97
binder="YXQGTXTSDXXIXLDXKAQXXFIEYLLEGGPSSGEPPPSGTE (synthetic construct; SITE 2: note = 2-Aminoisobutyric Acid; SITE 6: note = alpha-methyl-2-fluoro-L-phenylalanine; SITE 10: note = 3-(4-Pyridyl)-L-alanine; SITE 11: note = alpha-methyl-L-serine; SITE 13: note = alpha-methyl-leucine; SITE 16: note = L-ornithine; SITE 17: note = Lysine is chemically mo) [Example 532]" measured_property="log10 of Relative cAMP EC50" result_value=1.20
binder="YXQGTFTSDXSQXLDXKAQXAFIQXLLEGGPSSGAPPPSGSEEE (Aib, 4Pal, Orn, Me4Pal, αMeY; acylated lysine; amide; synthetic construct; SITE 2: note = 2-Aminoisobutyric Acid; SITE 10: note = 3-(4-Pyridyl)-L-alanine; SITE 13: note = alpha-methyl-leucine; SITE 16: note = L-ornithine; SITE 17: note = Lysine is chemically modified through conjugation of the epsilon-amino group of the Lysine side chain with D-Glutami) [Example 1083]" measured_property="log10 of Relative cAMP EC50" result_value=2.52
binder="YXQGTFTSDFSXXLDKKAQXAFIEYLLEXGPSSGAPPPSEG (synthetic construct; SITE 2: note = 2-Aminoisobutyric Acid; SITE 12: note = L-ornithine; SITE 13: note = alpha-methyl-leucine; SITE 17: note = Lysine is chemically modified through conjugation of the epsilon-amino group of the Lysine side chain with (2-[2-(2-Amino-ethoxy)-ethoxy]-acetyl)-(gamma-Glu)) [Example 61]" measured_property="log10 of Relative cAMP EC50" result_value=2.09
binder="YXQGTFTSDFSQXLDKKAQXAFIEYLLEXGESSGAPPPSGE (synthetic construct; SITE 2: note = 2-Aminoisobutyric Acid; SITE 13: note = alpha-methyl-leucine; SITE 17: note = Lysine is chemically modified through conjugation of the epsilon-amino group of the Lysine side chain with (2-[2-(2-Amino-ethoxy)-ethoxy]-acetyl)-(gamma-Glu)-CO-(CH2) 16-CO2H; SITE 20: n) [Example 789]" measured_property="log10 of Relative cAMP EC50" result_value=2.00
binder="HXQGTXTSDYSILLDKKAAXAFIEYLIETGPSSGEPPPSEG (not fully specified; synthetic construct; SITE 2: note = 2-Aminoisobutyric Acid; SITE 6: note = alpha-methyl-2-fluoro-L-phenylalanine; SITE 17: note = Lysine is chemically modified through conjugation of the epsilon-amino group of the Lysine side chain with (2-[2-(2-Amino-ethoxy)-ethoxy]-acetyl)-(gamma-Glu)-CO-(CH2) 18-) [Example 290]" measured_property="log10 of Relative cAMP EC50" result_value=2.63
